- targetDesc: FL-CHK1 (Homo sapiens)
- Construct: C-terminally His-tagged full-length human CHK1 (FL-CHK1); 6xHis (C); made in house; host or cells: baculovirus/insect cells
- Sequence (O14757 whole entry): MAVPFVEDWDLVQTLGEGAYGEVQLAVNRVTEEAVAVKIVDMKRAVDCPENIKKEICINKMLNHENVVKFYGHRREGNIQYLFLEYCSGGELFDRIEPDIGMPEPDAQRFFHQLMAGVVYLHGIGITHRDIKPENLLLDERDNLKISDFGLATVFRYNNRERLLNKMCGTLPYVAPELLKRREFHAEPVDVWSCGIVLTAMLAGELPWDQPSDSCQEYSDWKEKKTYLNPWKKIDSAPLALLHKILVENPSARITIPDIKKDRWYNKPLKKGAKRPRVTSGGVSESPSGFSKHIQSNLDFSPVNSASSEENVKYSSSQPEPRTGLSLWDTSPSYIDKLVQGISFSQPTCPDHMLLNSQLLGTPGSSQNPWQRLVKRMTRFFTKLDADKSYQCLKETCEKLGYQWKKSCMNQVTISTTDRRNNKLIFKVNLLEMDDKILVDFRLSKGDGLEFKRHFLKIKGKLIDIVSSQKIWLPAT
- assayRemarks: CHK1 assay
- Assay type: biochemical
- measurementConditions: 20 μM; combinatorial library compounds
metricName: inhibition at 20 µM (%)

1. Nc1nc(Nc2ccc(S(N)(=O)=O)cc2)sc1-c1nc(-c2ccc[nH]2)cs1 : 13.6

P. CN(C)c1ccc(Nc2nc(N)c(-c3nc(-c4cccc([N+](=O)[O-])c4)cs3)s2)cc1
Q. CN(C)c1ccc(Nc2nc(N)c(-c3nc(-c4cc(C(=O)C(Cl)(Cl)Cl)n(C)c4)cs3)s2)cc1
R. CN(C)c1ccc(Nc2nc(N)c(-c3nc(-c4ccc(O)c(O)c4)cs3)s2)cc1
S. Cc1onc(-c2ccccc2)c1-c1csc(-c2sc(Nc3ccc(S(N)(=O)=O)cc3)nc2N)n1
T. COc1cccc(-c2csc(-c3sc(Nc4ccc(N(C)C)cc4)nc3N)n2)c1
// ranking: key=inhibition at 20 µM, reverse=True List the labels in the requested order.
R, P, T, Q, S
(R: 46.5%, P: 13.8%, T: 7.8%, Q: 5.2%, S: 2.9%)

* * *

- targetDesc: CDK2/Cyclin A complex (Homo sapiens, UniProt P24941)
- assayRemarks: CDK2/Cyclin A assay
- Assay type: biochemical
- measurementConditions: 1.0 μM; combinatorial library compounds
metricName: inhibition at 1 µM (%)

1) COc1ccc(OC)c(-c2csc(-c3sc(Nc4ccc(C(C)C)cc4)nc3N)n2)c1 : 12.2

a. COc1ccc(-c2csc(-c3sc(Nc4ccc(S(N)(=O)=O)cc4)nc3N)n2)c(OC)c1
b. Nc1nc(Nc2ccc(S(N)(=O)=O)cc2)sc1-c1nc(-c2ccc(Cl)cc2Cl)cs1 [drawing 406]
Between a and b , whose measured inhibition at 1 µM reads higher? Select an item and report its label.
b
(b: 63%, a: 12.5%)

* * *

- targetDesc: phosphorylated VEGF-R2Δ50 (FLVK-P) (Homo sapiens, UniProt P35968, DEL940-989/E990V)
- Construct: VEGF-R2Δ50 contains residues 806-939 and 990-1171; made in house; host or cells: baculovirus/insect cells
- Sequence (P35968 with tags, fused parts or gaps DEL940-989/E990V limits assumed): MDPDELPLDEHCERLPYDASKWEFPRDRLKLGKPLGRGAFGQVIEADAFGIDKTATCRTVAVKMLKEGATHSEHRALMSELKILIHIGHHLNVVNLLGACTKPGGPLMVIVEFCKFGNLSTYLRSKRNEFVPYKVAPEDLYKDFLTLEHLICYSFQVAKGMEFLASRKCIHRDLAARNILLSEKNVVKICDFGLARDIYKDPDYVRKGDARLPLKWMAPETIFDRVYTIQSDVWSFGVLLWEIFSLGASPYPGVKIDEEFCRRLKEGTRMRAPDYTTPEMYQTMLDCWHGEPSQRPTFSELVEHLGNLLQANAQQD
- assayRemarks: VEGF-R2 coupled spectrophotometric (FLVK-P) assay
- Type: biochemical
- measurementConditions: Table 1; spectrophotometric assay
pKi: −log10 of the molar value.
metricName: pKi

Some solved cases for reference:
1) COc1cc(Nc2nc(N)c(-c3nc(-c4cccc(NC(=O)c5ccc(Br)o5)c4)cs3)s2)cc(OC)c1OC [D(37)] : 8.47
2) COc1cc(Nc2nc(N)c(-c3nc(-c4cccc(NC(=O)c5ccc(Cl)c(C)c5)c4)cs3)s2)cc(OC)c1OC [D(30)] : 8.54
3) COc1cc(Nc2nc(N)c(-c3nc(-c4cccc(NC(=O)OCc5ccccc5)c4)no3)s2)cc(OC)c1OC [D(44)] : 8.27

A. CC(=O)Nc1nc(N)c(-c2nc(-c3cccc(NC(=O)c4ccc(Cl)s4)c3)cs2)s1 [F(2)]
B. COc1cc(Nc2nc(N)c(-c3nc(-c4cccc(NC(=O)c5cccc(Br)c5)c4)cs3)s2)cc(OC)c1OC [D(29)]
When the recorded pKi values are compared, which is smaller: that of A or that of B ? Write the label of whichever entry you select.
A
(A: 8.41, B: 8.85)
